Tested on: E. coli TESEC Mtb DapB
Experiment Summary: growth (OD600 after 10 h); higher = more growth (less inhibition)
Condition: arabinose induction (level): High; compound 0.1 mM; raw OD600 reference: median of DMSO wells […], cell-free background 0.041
Structures can show the parent of a compound that is named as a salt.
Kindly supply the reported growth values for the records listed here.
Field format: numeric only.

Param item: NCc1ccccc1CC(=O)N[C@@H]1C(=O)N2C(C(=O)O)=C(CSc3nnnn3CC(=O)O)CS[C@H]12 [Ceforanide] ; param system: E. coli TESEC Mtb DapB; output growth: 0.182

The recorded growth with E. coli TESEC Mtb DapB for CCOC(=O)[C@H](CCc1ccccc1)N[C@@H](C)C(=O)N1[C@H](C(=O)O)C[C@@H]2CCC[C@@H]21 [Ramipril] was 0.188

Summary line: c1ccc(CN(CC2=NCCN2)c2ccccc2)cc1 [Antazoline hydrochloride] , E. coli TESEC Mtb DapB, reported growth = 0.185

Item CCOc1ccc(Cc2nccc3cc(OCC)c(OCC)cc23)cc1OCC [Ethaverine hydrochloride] was tested on E. coli TESEC Mtb DapB; the reported growth is 0.156
